System: P. falciparum stage V gametocytes
Design: BacTiter-Glo ATP luminescence viability of purified stage V gametocytes in 384-well plates, per cent inhibition versus DMSO
conditionsUsed: 48 h, 5 µM, inhibitor, % Inhibition
Screen size: about 13,000 compounds; about 3,200 (25%) showed an effect of 50% or more. Some of the results follow.
Quick list: % Inhibition per entry.
measureName: % Inhibition (%)

>>> print(df.to_string())
                                   compound   measurename  measured
0  NC1=NC(c2ccccc2)(c2cccc(O)c2)C(=O)N1CCCc1ccccc1 (stereo not shown) [TCMDC-132351]  % Inhibition     -3.76
1  O=C(Nc1ccccc1C(F)(F)F)NC1CCC(CN2CCC(c3c[nH]c4ccccc34)CC2)CC1 (stereo not shown)  % Inhibition     -23.5
2  Cn1nc(-c2ccc(S(=O)(=O)NC3CCC(CN4CCC(c5c[nH]c6ccccc56)CC4)CC3)s2)cc1C(F)(F)F (stereo not shown)  % Inhibition     96.23
3  O=C(NC1CCC(CN2CCC(c3c[nH]c4ccccc34)CC2)CC1)c1cc2ccccc2s1 (stereo not shown) [TCMDC-139722]  % Inhibition     56.81

* * *

System: P. falciparum stage V gametocytes
Parameters: BacTiter-Glo ATP luminescence viability of purified stage V gametocytes in 384-well plates, per cent inhibition versus DMSO
conditionsUsed: 48 h, 5 µM; inhibitor
Among all 13,000 compounds or so, about 3,200 (25%) showed an effect of 50% or more. The list shows a part of the results.
measureName: % Inhibition (%)

                                    compound   measurename  units  measured
 0  CC(=O)Nc1ccc(Nc2ncc([N+](=O)[O-])c(Nc3ccccc3C(N)=O)n2)cc1  % Inhibition      %     -8.61
 1  CCN(CC)CCNC(=O)c1ccc(Nc2ncc([N+](=O)[O-])c(Nc3ccccc3OC)n2)cc1  % Inhibition      %     73.19
 2  Cc1cccc(C(=O)Nc2ccnc(N3CCCN(Cc4cccc(O)c4)CC3)c2)c1  % Inhibition      %    -37.26
 3  Cc1ccc(/C=C/C(=O)NCCCCCN2CCN(C(=O)Nc3ccc(Cl)c(C(F)(F)F)c3)CC2)cc1  % Inhibition      %     10.82
 4  Cc1ccc(Nc2nc(N/N=C/c3cccc(O)c3)nc(Nc3ccc([N+](=O)[O-])cc3)n2)cc1C  % Inhibition      %    -28.14
 5  CC(C)Oc1ccc(N2CCN(CCCCNC(=O)c3ccc(NC(=O)c4ccc(Cl)cc4)cc3)CC2)c(OC(C)C)c1  % Inhibition      %     -2.12
 6  CCOC(=O)c1[nH]c(-c2ccccc2)nc1NC(=S)NC1CCCCC1  % Inhibition      %     5.591
 7  CNC(=O)c1ccccc1Nc1nc(Nc2ccc(C(=O)O)cc2)ncc1Cl  % Inhibition      %    -5.909
 8  CCOC(=O)c1ccc(-c2cnoc2-c2cc(CC)c(OC)cc2O)o1  % Inhibition      %    -15.35
 9  CN1CCCC(CN2CCN(Cc3cccc(-c4csc(-c5nc6ccccc6[nH]5)c4)c3)CC2)C1 (centres unmarked)  % Inhibition      %      1.76
10  CS(=O)(=O)Nc1ccc2[nH]cc(C3CCN(CC(O)C4CCN(C(=O)/C=C/c5ccc(Cl)c(Cl)c5)CC4)CC3)c2c1 (centres unmarked)  % Inhibition      %     30.58
11  Cc1ccc(N2CCN(CCCCNC(=O)c3ccc(NC(=O)c4ccc(Cl)cc4)cc3)CC2)c(C)c1  % Inhibition      %     8.523
12  Cc1cnc(CCNC(=O)c2cc(-c3ccc(Cl)cc3)cs2)[nH]1  % Inhibition      %     0.312
13  CN1CCC(N2CCN(C(=O)c3cccc(-c4cccc(-c5nc6ccccc6[nH]5)c4)c3)CC2)CC1  % Inhibition      %     7.191
14  CCOC(=O)c1ccc(N2CCCCC2)c(NC(=O)C(Cl)(Cl)Cl)c1  % Inhibition      %    -22.75
15  O=C(NCCN1CCC(c2ccncc2)CC1)c1ccc(Nc2nccc(Nc3ccc(Oc4ccccc4)cc3)n2)cc1  % Inhibition      %    -43.68
16  CCNC(=O)Nc1ccc(-c2cnc(N)c(-c3nc4ccc(OC)cc4[nH]3)c2)cc1  % Inhibition      %    -14.13
17           CCCCCCNc1cc(C)nc2ccc(OC)cc12.Cl  % Inhibition      %    -4.593
18  CN1CCCC(CN2CCN(Cc3cccc(-c4ccc(-c5nc6ccccc6[nH]5)cc4)c3)CC2)C1 (centres unmarked)  % Inhibition      %     60.97
19  COCCNCc1cccc(-c2ccc(CN(C(=O)NC3CCCCC3)C3CCN(Cc4ccccc4)CC3)cc2)c1  % Inhibition      %     84.07
20      COc1cccc(C(=O)NCc2cccs2)c1OCc1ccccc1  % Inhibition      %      8.01
21  O=C(O)C(F)(F)F.OCCN1CCN(Cc2ccc(-c3ccc(-c4nc5ccccc5[nH]4)cc3)cc2)CC1  % Inhibition      %    -7.938
22  COCCNCc1ccc(-c2ccc(CN(C(=O)NC3CCCCC3)C3CCN(Cc4ccccc4)CC3)cc2)cc1  % Inhibition      %     95.07
23  Cc1nc(/N=C(\N)NC(=O)NC2CCCCC2)nc2ccccc12  % Inhibition      %     133.5
24  CCCC(C)NC(=O)c1cnn(-c2ccc(C(C)(C)C)cc2)c1OCc1ccc(Br)cc1 (centres unmarked)  % Inhibition      %     11.83
25  OC(CNc1ccnc(Nc2cccc(Cl)c2)n1)c1ccc(C(F)(F)F)cc1 (centres unmarked)  % Inhibition      %    -49.28
26  O=C(/C=C/c1ccc(Cl)c(Cl)c1)N1CCC(C(O)CN2CCC(c3c[nH]c4ccccc34)CC2)CC1 (centres unmarked)  % Inhibition      %     19.99
27  COc1ccc(C2CC(=O)C3=C(C2)NC(C)=C(C(=O)OC(C)C)C3c2cccc(O)c2)cc1OC (centres unmarked)  % Inhibition      %     49.05
28  CN(C)CCN1CCN(Cc2cccc(-c3csc(-c4nc5ccccc5[nH]4)c3)c2)CC1  % Inhibition      %     29.26
29     CCCCCCCN(CCCCCCC)CCNc1cc(C)nc2ccccc12  % Inhibition      %     59.52
30  CN(C)c1ccc(CN2CCC(CNC(=O)c3cc(-c4cccc(F)c4)cs3)C2)cc1 (centres unmarked)  % Inhibition      %     71.45
31              CCCCCCCNCCNc1cc(C)nc2ccccc12  % Inhibition      %     91.75

* * *

System: P. falciparum stage V gametocytes
Design: BacTiter-Glo ATP luminescence viability of purified stage V gametocytes in 384-well plates, per cent inhibition versus DMSO
conditionsUsed: 48 h, 5 µM; inhibitor
Out of some 13,000 compounds screened, about 3,200 (25%) showed an effect of 50% or more. The list shows a part of the results.
Listing: % Inhibition of selected compounds
measureName: % Inhibition (%)

In [3]: df
Out[3]:
                                    compound   measurename  measured
 0           CC1(C)N=C(N)N=C(N)N1c1cccc(I)c1  % Inhibition    -1.195
 1  Cn1nccc1C(=O)NCCNCc1cccc(-c2ccc(-c3nc4ccccc4[nH]3)s2)c1.O=C(O)C(F)(F)F  % Inhibition    -10.06
 2  CC(=O)Nc1ccc(OCCN(CC(C)(C)C)c2ccc(C#N)c(C(F)(F)F)c2)c(Cl)c1  % Inhibition     66.46
 3  CC(C)(C)c1ccccc1OCCCON1C(N)=NC(N)=NC1(C)C  % Inhibition     48.16
 4  N#CCCN1CCN(Cc2ccc(-c3ccc(-c4nc5ccc(F)cc5[nH]4)s3)cc2)CC1  % Inhibition    -54.51
 5  CCCc1c(Cl)cc(CNCCCNc2nc3ccncc3[nH]2)cc1Cl  % Inhibition     47.86
 6  Cc1[nH]c(C)c(-c2ccc(-c3ccc(OC(F)(F)F)cc3)nc2)c(=O)c1Cl  % Inhibition     60.39
 7  CN1CCCC(CN2CCN(Cc3cccc(-c4ccc(-c5nc6ccc(F)cc6[nH]5)cc4)c3)CC2)C1 (centres unmarked)  % Inhibition     104.2
 8  CC(=O)Nc1ccc(OCCCCN(Cc2ccccc2OC(F)(F)F)c2ccc(C(F)(F)F)c(C#N)c2)c(Cl)c1  % Inhibition     39.51
 9  CC(=O)Nc1ccc(OCCCCN(Cc2ccccc2C(F)(F)F)c2ccc(C#N)c(C(F)(F)F)c2)c(Cl)c1  % Inhibition     69.01
10  Cc1cccc2nc(-c3ccc(-c4ccc(CNCc5cnn(-c6ccccc6)n5)cc4)s3)[nH]c12.O=C(O)C(F)(F)F  % Inhibition     11.48
11  O=C(NCCN1CCCC1)c1cccc(-c2ccc(-c3nc4ccccc4[nH]3)s2)c1  % Inhibition    -6.335
12  CC(=O)Nc1ccc(OCCN(CC(C)C)c2ccc(C#N)c(C(F)(F)F)c2)c(Cl)c1  % Inhibition      29.5
13  Cc1cc(N2CCC(NS(=O)(=O)c3ccccc3)CC2)nc(Nc2cccc(C#N)c2)n1  % Inhibition     22.13
14  O=C(Nc1ccc2c(c1)OCO2)NC1CCN(c2ccnc(NCc3ccc(F)cc3)n2)CC1  % Inhibition     26.57
15  CC1CCc2c(C(=O)Nc3c(F)cc(F)cc3Br)csc2C1 (centres unmarked)  % Inhibition     6.238
16  Cc1cc(Cc2ccc(S(=O)(=O)c3cc4c(cc3O)CCN(C)CC4)cc2)ccc1Cl  % Inhibition     17.27
17  Cc1[nH]c(C)c(-c2ccc(-c3ccc(OC(F)(F)F)cc3)nc2)c(=O)c1Br  % Inhibition     67.89
18  CCNc1cc(C(=O)N[C@@H](Cc2ccccc2)[C@H](O)CNC2(Cc3cccc(Cl)c3)CCC2)cc(N2CCCCS2(=O)=O)c1  % Inhibition     17.64
19  CC(=O)Nc1ccc(OCCN(CC(C)C)c2ccc(C(F)(F)F)c(C#N)c2)c(Cl)c1  % Inhibition     18.14
20  CC1CN(Cc2ccc(-c3ccc(-c4nc5ccc(F)cc5[nH]4)s3)cc2)CC(C)O1 (centres unmarked)  % Inhibition     9.471
21  Cn1cc(CCNc2ccnc(N3CCC(c4ncc[nH]4)CC3)n2)c2ccccc21  % Inhibition     26.64
22  OCC1CCN(Cc2cccc(-c3cccc(-c4nc5ccc(C(F)(F)F)cc5[nH]4)c3)c2)CC1  % Inhibition     41.06
23  c1ccc(CCNc2ccnc(Nc3ccc4cn[nH]c4c3)n2)cc1  % Inhibition     16.88
24   CC1(C)N=C(N)N=C(N)N1OCCCOc1cc(Cl)ccc1Cl  % Inhibition     20.73
25  CCCC(CNCc1ccc(Cl)c(C(F)(F)F)c1)CNc1nc2ccncc2[nH]1 (centres unmarked)  % Inhibition     56.14
26     Nc1ccc(-c2ccc(NC(=O)Nc3ccccc3)cc2)cn1  % Inhibition     8.914
27  COc1ccc(C2(CNCC(O)c3cccc([N+](=O)[O-])c3)CCCC2)cc1OC (centres unmarked)  % Inhibition     30.43
28  COc1ccc(CNC(=O)NC2CCN(c3ccnc(Nc4ccc(F)cc4)n3)CC2)cc1  % Inhibition     1.923
29  CN1CCCC(CN2CCN(Cc3ccc(-c4ccc(-c5nc6ccccc6[nH]5)s4)cc3)CC2)C1 (centres unmarked)  % Inhibition     85.26
30  CN1CCCC(CN2CCN(Cc3ccc(-c4ccc(-c5nc6ccc(F)cc6[nH]5)s4)cc3)CC2)C1 (centres unmarked)  % Inhibition      66.7
31  CC1(C)N=C(N)N=C(N)N1OCCCCOc1ccc(Cl)cc1C1CCCCC1  % Inhibition     106.8
